Assay: qHTS assay to identify small molecule agonists of the RXR signaling pathway - cell viability counter screen (AID 1159529); further: nearly all actives have a fitted effect of over 50% in size; further: potency means the concentration at half of the fitted maximal effect
Details: RXR-alpha-bla HEK293T viability, CellTiter-Glo, 16 h; series mostly up to 76.8 µM
Records with an inconclusive call do not appear. The source made the active and inactive calls. The call rests on the fitted dose curve; in most records, active means well fitted cell-killing curve with a large enough effect in the repeat runs; inconclusive means weak or mixed curves, or effect the other way; inactive means no such curve, though single readings can be large or run the other way.
Parameter Measured: Potency

For orientation, consider the following solved cases.
* N#C/C=C/C#N | inactive
* CC(Cl)CN(C)C (centres undefined) | inactive
* CC(C)CC(C)Nc1ccc(Nc2ccccc2)cc1 (centres undefined) | 54 µM (active)
* BrCC(Br)c1ccccc1 (centres undefined) | inactive
* CCCCN(CCCC)C(=S)[S-].CCCCN(CCCC)C(=S)[S-].[Zn+2] | 4.36 µM (active)
* Cc1c(Cl)c(=O)oc2cc(OP(=O)(OCCCl)OCCCl)ccc12 | inactive
* BrC(Br)Br | inactive
* O=c1[nH]c2ccccc2n1CCCN1CCC(n2c(=O)[nH]c3cc(Cl)ccc32)CC1 | 16.9 µM (active)
* CCc1ccccc1C | inactive
* c1ccc2c(c1)[nH]c1cnccc12 | inactive

stdin: Recorded Potency of CC(=[OH+])/C=C(/C)[O-].CC(=[OH+])/C=C(\C)[O-].CC(=[OH+])/C=C(\C)[O-].[Al] , please.
stdout: inactive

stdin: So what's the measured Potency for this one? CC(c1ccc(O)cc1)c1ccc(O)cc1
stdout: inactive

stdin: Recorded Potency for N#CCCC(Br)(C#N)CBr (centres undefined) , please?
stdout: 38.9 µM (active)

stdin: May I ask what Potency has been recorded for Cn1[nH]nnc1=S ?
stdout: inactive
